# target-of-assay: T1, IgG-Fc (UniProt P01857-1 108-330 = IgG part, limits assumed)
# T1 construct: domain: IgG-Fc; also called biotinylated-IgG-Fc; biotin-IgG-Fc
# method-notes: phage ELISA, M13/gIII display
experimental-readout: pEC50
Entry type: numeric. Quantity: pEC50, the -log10 of concentration in molar units.

Worked cases, pEC50 given:
DLADCSWHLGELVWCSRVEG (M13/gIII phage display; Designed Clones) [phage clone DLADCSWHLGELVWCSRVEG] : 8.05
KEASCSWHLGELVWCVAGVE (M13/gIII phage display; Focused Libraries) [phage clone KEASCSWHLGELVWCVAGVE] : 6.65
EQADCAWHLGELVWCTPMVF (M13/gIII phage display; Secondary Optimization) [phage clone EQADCAWHLGELVWCTPMVF] : 8.10
KEASCSYWLGELVWCDTFDE (M13/gIII phage display; Focused Libraries) [phage clone KEASCSYWLGELVWCDTFDE] : 6.52
KEASCSYWLGELVWCTEGVE (M13/gIII phage display; Focused Libraries) [phage clone KEASCSYWLGELVWCTEGVE] : 6.09
EEPDCSWHLGELVMCTPMEV (M13/gIII phage display; Secondary Optimization) [phage clone EEPDCSWHLGELVMCTPMEV] : 7.85
KVADCAWHMGELVWCTEVEG (M13/gIII phage display; Secondary Optimization) [phage clone KVADCAWHMGELVWCTEVEG] : 7.64
KEASCSYWLGELVWCVGLDE (M13/gIII phage display; Focused Libraries) [phage clone KEASCSYWLGELVWCVGLDE] : 6.56
KEASCSYWLGELVWCSPGVE (M13/gIII phage display; Focused Libraries) [phage clone KEASCSYWLGELVWCSPGVE] : 6.13
EVEDCAYHLGELVWCSDLEG (M13/gIII phage display; Secondary Optimization) [phage clone EVEDCAYHLGELVWCSDLEG] : 7.09

### Prompt Could you share which pEC50 value was measured for RVADCAWHMGELVWCSELEV (M13/gIII phage display; Secondary Optimization) [phage clone RVADCAWHMGELVWCSELEV] ?
### Response 7.36

### Prompt Repeat for the following binder: READCAWHLGELVWCSERDL (M13/gIII phage display; Secondary Optimization) [phage clone READCAWHLGELVWCSERDL]
### Response 7.33

### Prompt Can you handle KEADCAWHLGELVWCVAGVE (M13/gIII phage display; Focused Libraries) [phage clone KEADCAWHLGELVWCVAGVE] next?
### Response 6.86

### Prompt Can you check GVRNCAYHLGELVWCTPMEF (M13/gIII phage display; Secondary Optimization) [phage clone GVRNCAYHLGELVWCTPMEF] next?
### Response 8.00

### Prompt Subsequent entry: KEASCAWHLGELVWCSEVEE (M13/gIII phage display; Secondary Optimization) [phage clone KEASCAWHLGELVWCSEVEE]
### Response 6.89
